- Test system: MS2 coat protein
- assaySummary: apparent KD of MS2 coat protein; designed switch direction (-1 OFF switch, 1 ON switch): -1; higher = weaker reporter binding
- particulars: input ligand: none
Overview of reported apparent KD of MS2 coat protein across a group of sequences:
measuredMetric: apparent KD of MS2 coat protein (nM)

biosequence	unitDescriptor	experimentalValue
ACAGUUUUGCAAGGAUAUCGUUUUAGUUUAUUACGAGAAGGUGCUUUAGUUAUUUCUUUGGGUUGACAUGAGGAUCACCCAUGU [JR_ExcNG1_Sub057] (Eterna round: R96, puzzle: Exclusion NG 1)	nM	148
AAAUAGUAGCAGGAUAUGAGUAUUAUUGGAAGCUCAGAAGGGCUGACAUGAGGAUCACCCAUGUGUUAUGUCGG [Eternabot (L1) Solution 54] (Eterna round: R97, puzzle: Exclusion 6)	nM	177
UUUUAGGCAGGAUAUACAUGAGGAUCACCCAUGUAAAUUUUUCGUUUAACUUGAAUGUGUAGAAGGGCCAUUUU [Ex3 #59] (Eterna round: R97, puzzle: Exclusion 3)	nM	20.2
